Field: glycan array binding signal (z-score). Provide a value for each of the binders that follow.
# system.name: Gal(b1-4)GlcNAc(b1-3)Gal(b1-4)GlcNAc(b1-2)[Gal(b1-4)GlcNAc(b1-3)Gal(b1-4)GlcNAc(b1-6)]Man(a1-6)[Gal(b1-4)GlcNAc(b1-3)Gal(b1-4)GlcNAc(b1-2)Man(a1-3)]Man(b1-4)GlcNAc(b1-4)GlcNAc
# assay.overview: glycan array binding signal (z-score within array); higher = stronger binding
# measurement.parameters: glycan notation: IUPAC condensed, linker removed
Shown is part of a subset that was picked to be rich in the strongest signals.
// return a plain number; no unit text

Can you look up the measured glycan array binding signal (z-score) of Nc3LysM (protein) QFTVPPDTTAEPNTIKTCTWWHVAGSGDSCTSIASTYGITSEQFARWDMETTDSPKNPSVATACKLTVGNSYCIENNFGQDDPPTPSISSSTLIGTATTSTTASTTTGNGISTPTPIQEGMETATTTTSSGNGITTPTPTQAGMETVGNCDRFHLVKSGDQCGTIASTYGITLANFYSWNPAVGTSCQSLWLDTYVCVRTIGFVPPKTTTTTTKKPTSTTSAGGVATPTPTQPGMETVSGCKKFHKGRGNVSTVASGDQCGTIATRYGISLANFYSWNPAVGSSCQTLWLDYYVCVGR for me?
0.008

Can you look up the measured glycan array binding signal (z-score) of SP15308F-bth-333-19-333 (Bacteroides thetaiotaomicron) (protein) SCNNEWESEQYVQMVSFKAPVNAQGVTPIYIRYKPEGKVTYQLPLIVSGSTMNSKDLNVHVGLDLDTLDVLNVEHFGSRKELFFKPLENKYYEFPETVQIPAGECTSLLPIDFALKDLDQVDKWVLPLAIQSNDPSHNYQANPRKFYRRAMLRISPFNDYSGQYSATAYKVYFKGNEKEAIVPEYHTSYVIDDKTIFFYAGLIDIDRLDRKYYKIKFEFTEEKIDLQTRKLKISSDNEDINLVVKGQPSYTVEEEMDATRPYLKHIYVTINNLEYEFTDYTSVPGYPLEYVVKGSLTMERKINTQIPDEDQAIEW for me?
-0.769

Can you look up the measured glycan array binding signal (z-score) of DrGRIFIN (Danio rerio), Q6DGJ1 (protein) MTLRFEASCPDGLCPGWSVILKGETPPEASKFEINFLCDRDDRVAFHFNPRFTESDIICNSYMANRWGQEERCNHFPLGVEEPFQIEIYSDNDHFHVYIDKAKVMQYKHRVEDLKTITKLQVVNDVKISSLEITKKLFY for me?
-0.039

Values from the supplement of paper PMC8728848
